target: ΔF508-CFTR (Homo sapiens, UniProt P13569, DEL508-508); construct: host or cells: CFBE41o-, doxycycline-inducible; experiment: CFTR cell surface levels using HRP-tagged ΔF508-CFTR expressing CFBE cells, in the presence of a co-corrector; type: cell-based; details: HRP-tagged ΔF508-CFTR expressing CFBE cells, in the presence of 3 μM co-corrector
Sequence (P13569 with tags, fused parts or gaps DEL508-508): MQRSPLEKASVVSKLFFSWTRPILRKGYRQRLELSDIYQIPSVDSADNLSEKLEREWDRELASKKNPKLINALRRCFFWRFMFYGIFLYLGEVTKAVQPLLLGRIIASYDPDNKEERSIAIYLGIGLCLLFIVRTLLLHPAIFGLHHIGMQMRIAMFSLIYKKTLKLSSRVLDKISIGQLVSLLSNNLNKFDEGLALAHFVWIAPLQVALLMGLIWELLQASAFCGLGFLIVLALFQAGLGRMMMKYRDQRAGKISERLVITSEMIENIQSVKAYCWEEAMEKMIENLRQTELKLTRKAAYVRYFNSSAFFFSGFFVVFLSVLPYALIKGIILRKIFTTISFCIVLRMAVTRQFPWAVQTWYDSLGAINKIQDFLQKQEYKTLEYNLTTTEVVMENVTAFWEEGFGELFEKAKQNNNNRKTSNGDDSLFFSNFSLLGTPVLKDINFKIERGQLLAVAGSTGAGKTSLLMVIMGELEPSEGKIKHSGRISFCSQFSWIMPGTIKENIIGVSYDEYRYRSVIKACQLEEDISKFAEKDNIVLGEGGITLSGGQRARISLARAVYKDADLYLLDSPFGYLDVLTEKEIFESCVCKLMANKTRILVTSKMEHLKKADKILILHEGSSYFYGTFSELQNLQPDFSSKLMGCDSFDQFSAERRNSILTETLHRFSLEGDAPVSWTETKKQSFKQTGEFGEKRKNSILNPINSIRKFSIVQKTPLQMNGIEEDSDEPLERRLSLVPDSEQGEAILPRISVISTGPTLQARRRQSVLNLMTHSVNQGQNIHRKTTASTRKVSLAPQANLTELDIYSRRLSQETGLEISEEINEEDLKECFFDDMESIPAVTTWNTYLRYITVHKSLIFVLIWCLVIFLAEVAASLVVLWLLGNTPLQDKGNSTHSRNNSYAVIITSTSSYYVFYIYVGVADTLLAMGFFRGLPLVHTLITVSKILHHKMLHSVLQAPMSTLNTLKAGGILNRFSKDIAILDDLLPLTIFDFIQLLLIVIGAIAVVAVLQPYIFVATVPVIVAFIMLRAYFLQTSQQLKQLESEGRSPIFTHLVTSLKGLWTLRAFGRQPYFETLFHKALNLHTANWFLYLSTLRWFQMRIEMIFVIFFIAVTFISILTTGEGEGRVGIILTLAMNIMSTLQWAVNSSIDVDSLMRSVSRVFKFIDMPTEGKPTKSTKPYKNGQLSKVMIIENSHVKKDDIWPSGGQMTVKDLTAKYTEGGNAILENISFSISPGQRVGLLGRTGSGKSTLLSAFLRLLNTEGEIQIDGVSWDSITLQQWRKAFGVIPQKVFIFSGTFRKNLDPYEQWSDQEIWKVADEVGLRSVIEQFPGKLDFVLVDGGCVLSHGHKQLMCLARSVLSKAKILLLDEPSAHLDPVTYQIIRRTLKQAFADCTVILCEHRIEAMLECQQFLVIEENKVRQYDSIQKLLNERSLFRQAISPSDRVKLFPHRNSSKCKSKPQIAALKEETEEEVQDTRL
quantity: % Activation
# answer = value followed by unit

CC(C)(O)C1CCN(c2cc(C(=O)O)nc3c2c(C2CCC2)nn3-c2ccccc2)CC1 : 424.5%
CC(=O)N1CCC(COc2cc(C(=O)O)nc3c2c(C(C)C)nn3-c2ccc(F)cc2)CC1 : 310.6%
Cc1nn(-c2ccccc2)c2nc(C(=O)O)cc(N3CCC([C@H](F)CN(C)C)CC3)c12 : 250.1%

Would you kindly look at the next entry?
Data request: Given the compound O=C(O)c1cc(N2CCC(N3CCC(O)CC3)CC2)c2c(C3CCC3)nn(-c3ccc(F)cc3)c2n1 , what is its reported % Activation?
Data returned: 393.6%
